Where do these numbers come from? They come from paper PMC6152231.

system: BV2 microglial cells; experiment: cytotoxicity, MTT assay; type: cell-based, mouse; conditions: 20.0 μM, 24 h, BV2 microglial cells, n = 3; in % (unit assumed)
# Cell Viability values compiled below
Reported endpoint: Cell Viability

{"Molecule": "C=C1CC[C@]2(C(=O)O[C@@H]3O[C@H](CO)[C@@H](O)[C@H](O)[C@H]3O[C@@H]3O[C@@H](C)[C@H](O)[C@@H](O)[C@H]3O)CC[C@]3(C)C(=CC[C@@H]4[C@@]5(C)CC[C@H](O[C@@H]6OC[C@H](O)[C@H](O[C@@H]7O[C@H](CO)[C@@H](O)[C@H](O)[C@H]7O[C@@H]7O[C@H](CO)[C@@H](O)[C@H](O)[C@H]7O)[C@H]6O[C@@H]6O[C@@H](C)[C@H](O)[C@@H](O)[C@H]6O)C(C)(C)[C@@H]5CC[C@]43C)[C@@H]2[C@]1(C)O [Compound 7, ilekudinoside F]", "Target under test": "BV2 microglial cells", "Reported endpoint": "Cell Viability", "Observed result": 101.76}
{"Molecule": "C[C@@H]1CC[C@]2(C(=O)O[C@@H]3O[C@H](CO)[C@@H](O)[C@H](O)[C@H]3O)CC[C@]3(C)C(=CCC4[C@@]5(C)CC[C@H](OS(=O)(=O)[O-])[C@](C)(CO)C5CC[C@]43C)[C@@H]2[C@]1(C)O.[Na+] (some centres unmarked) [Compound 6, ilexoside XXXV]", "Target under test": "BV2 microglial cells", "Reported endpoint": "Cell Viability", "Observed result": 103.35}
{"Molecule": "C[C@@H]1CC[C@]2(C(=O)O[C@@H]3O[C@H](CO)[C@@H](O)[C@H](O)[C@H]3O)CC[C@]3(C)C(=CCC4[C@@]5(C)CC[C@H](O[C@@H]6O[C@H](CO)[C@@H](O)[C@H](O)[C@H]6O[C@@H]6O[C@H](CO)[C@@H](O[C@@H]7O[C@H](CO)[C@@H](O)[C@H](O)[C@H]7O)[C@H](O)[C@H]6O)C(C)(C)C5CC[C@]43C)[C@@H]2[C@]1(C)O (some centres unmarked) [Compound 3, hylonoside II]", "Target under test": "BV2 microglial cells", "Reported endpoint": "Cell Viability", "Observed result": 89.35}
{"Molecule": "C[C@H]1CC[C@]2(C(=O)O[C@@H]3O[C@H](CO)[C@@H](O)[C@H](O)[C@H]3O)CC[C@]3(C)C(=CCC4[C@@]5(C)CC[C@H](O[C@@H]6OC[C@@H](O)[C@H](O)[C@H]6OS(=O)(=O)O)C(C)(C)C5CC[C@]43C)C2[C@]1(C)O (some centres unmarked)", "Target under test": "BV2 microglial cells", "Reported endpoint": "Cell Viability", "Observed result": 99.32}
{"Molecule": "C[C@H]1CC[C@]2(C(=O)O[C@@H]3O[C@H](CO)[C@@H](O)[C@H](O)[C@H]3O)CC[C@]3(C)C(=CCC4[C@@]5(C)CC[C@H](O[C@@H]6OC[C@H](O)[C@H](OS(=O)(=O)O)[C@H]6O)C(C)(C)C5CC[C@]43C)C2[C@]1(C)O (some centres unmarked)", "Target under test": "BV2 microglial cells", "Reported endpoint": "Cell Viability", "Observed result": 99.67}
{"Molecule": "CCCCOC(=O)C1OC(OC2CCC3(C)C(CCC4(C)C3CC=C3C5C(C(=O)OC6OC(CO)C(O)C(O)C6O)(CCC(C)C5(C)O)CCC34C)C2(C)C)C(O)C(O)C1O (centres unmarked)", "Target under test": "BV2 microglial cells", "Reported endpoint": "Cell Viability", "Observed result": 99.35}
{"Molecule": "CCCCOC(=O)C1OC(OC2CCC3(C)C(CCC4(C)C3CC=C3C5C(C(=O)OC6OC(CO)C(O)C(O)C6O)(CCC(C)C5(C)O)CCC34C)C2(C)C)C(O)C(OS(=O)(=O)O)C1O (centres unmarked)", "Target under test": "BV2 microglial cells", "Reported endpoint": "Cell Viability", "Observed result": 98.16}
{"Molecule": "C[C@@H]1C[C@H]2[C@@H]3CCC4=CC(=O)C=C[C@]4(C)[C@@]3(F)[C@@H](O)C[C@]2(C)[C@@]1(O)C(=O)CO [Dexamethasone, reference compound]", "Target under test": "BV2 microglial cells", "Reported endpoint": "Cell Viability", "Observed result": 100.25}
